Recorded values, source the supplement of paper PMC7125110.

B1: glmS ribozyme (parent)
chain: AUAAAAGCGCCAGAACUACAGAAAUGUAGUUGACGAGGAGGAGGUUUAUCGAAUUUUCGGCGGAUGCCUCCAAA

Variants of: B1
assay-comment: self-cleavage kobs at 10000 uM GlcN6P; higher = faster cleavage; RNA array
condition-summary: with glucosamine-6-phosphate
Variants at the floor of the assay were thinned out.
readout: self-cleavage kobs at 10000 uM GlcN6P (s⁻¹)

- U31A A42G U46C: 0.000411
- A39U G41A: 0.000257
- A12U U46C: 0.0123
- U46A U47G G66C: 0.000401
- U30A U65A C71U: 0.000453
- U31A A52U: 8.67e-05
- A12U U45G: 0.0165
- A12U U30A A39U U55C: 0.0143
- U47A A53G U54G: 0.0222
- C11A A14C U31G U65G: 2.62e-05
- A72C: 0.0121
- U45A U56C: 0.00411
